Test system: E. coli DY-1
Experiment description: MIC by agar dilution, E. coli DY-1
Format: cell-based
Details: Escherichia coli, DY1, 17 h; E. coli DY-1; agar dilution, Mueller-Hinton agar; read-out: Minimal Inhibitory Concentration (MIC)
MIC: recorded values
Write it as a number; the unit µg/mL goes unstated.

Reference set, count: 3
Compound: CCO/N=C(\C(=O)N[C@@H]1C(=O)N2C(C(=O)[O-])=C(C[n+]3ccn4c(C(C)=O)cc(Cl)c4c3)CS[C@H]12)c1csc(N)n1
Tgt: E. coli DY-1
MIC, µg/mL: 0.025
--
Compound: CO/N=C(\C(=O)N[C@@H]1C(=O)N2C(C(=O)[O-])=C(C[n+]3ccn4c(C#N)ccc4c3C)CS[C@H]12)c1csc(N)n1
Tgt: E. coli DY-1
MIC, µg/mL: 0.012
--
Compound: Nc1nc(/C(=N\O)C(=O)N[C@@H]2C(=O)N3C(C(=O)[O-])=C(C[n+]4ccn5cccc5c4)CS[C@H]23)cs1
Tgt: E. coli DY-1
MIC, µg/mL: 0.05

Query :: Recorded MIC for CO/N=C(\C(=O)N[C@@H]1C(=O)N2C(C(=O)[O-])=C(C[n+]3ccn4c(CO)ccc4c3C)CS[C@H]12)c1nc(N)sc1Cl , please?
Result :: 0.05

Query :: Query (compound): CCON=C(C(=O)NC1C(=O)N2C(C(=O)[O-])=C(C[n+]3ccn4c(C(C)=O)ccc4c3)CSC12)c1csc(N)n1 (stereo not shown) ; field requested: MIC
Result :: 0.025

Query :: Need MIC of CCON=C(C(=O)NC1C(=O)N2C(C(=O)[O-])=C(C[n+]3ccn4c(SCCN)ccc4c3)CSC12)c1csc(N)n1 (stereo not shown) , thanks.
Result :: 0.012

====

Test system: M. morganii DY-1
Experiment description: MIC by agar dilution, M. morganii DY-1
Assay type: cell-based
Details: Morganella morganii, DY1, 17 h; M. morganii DY-1; agar dilution, Mueller-Hinton agar; read-out: Minimal Inhibitory Concentration (MIC)
Metric: MIC (µg/mL)
Your answer should be a plain number; it is taken to be in µg/mL.

The following compounds have reported results that may help.
Compound: Nc1nc(C(=NOCC(=O)O)C(=O)NC2C(=O)N3C(C(=O)[O-])=C(C[n+]4ccn5c(CO)ccc5c4)CSC23)cs1 (stereo not drawn)
MIC [µg/mL]: 0.012
//
Compound: C#CCON=C(C(=O)NC1C(=O)N2C(C(=O)[O-])=C(C[n+]3ccn4cccc4c3)CSC12)c1csc(N)n1 (stereo not drawn)
MIC [µg/mL]: 0.05
//
Compound: CON=C(C(=O)NC1C(=O)N2C(C(=O)[O-])=C(C[n+]3ccn4c([N+](=O)[O-])ccc4c3)CSC12)c1csc(N)n1 (stereo not drawn)
MIC [µg/mL]: 0.05
//
Compound: CON=C(C(=O)NC1C(=O)N2C(C(=O)[O-])=C(C[n+]3ccn4c(C(C)=O)ccc4c3)CSC12)c1csc(N)n1 (stereo not drawn)
MIC [µg/mL]: 0.025

Query compound follows.
Query :: Can you share its MIC? I mean this compound: CCO/N=C(\C(=O)N[C@@H]1C(=O)N2C(C(=O)[O-])=C(C[n+]3ccn4cccc4c3C)CS[C@H]12)c1csc(N)n1
Result :: 0.025

====

Test system: E. coli DY-1
Experiment description: MIC by agar dilution, E. coli DY-1
Type: cell-based
Details: Escherichia coli, DY1, 17 h; E. coli DY-1; agar dilution, Mueller-Hinton agar; read-out: Minimal Inhibitory Concentration (MIC)
Metric: MIC (mg/L)
Answer in mg/L, number only, no unit symbol.

Compound: CO/N=C(\C(=O)N[C@@H]1C(=O)N2C(C(=O)[O-])=C(C[n+]3ccn4c(C(C)O)ccc4c3)CS[C@H]12)c1nsc(N)n1 (stereo partly shown)
MIC / mg/L: 0.025

Query :: Which MIC value belongs to Nc1nc(C(=NOCC(=O)O)C(=O)NC2C(=O)N3C(C(=O)[O-])=C(C[n+]4ccn5c(CO)ccc5c4)CSC23)cs1 (stereo not shown) ?
Result :: 0.025

Query :: Look up MIC: CON=C(C(=O)NC1C(=O)N2C(C(=O)[O-])=C(C[n+]3ccn4c([N+](=O)[O-])ccc4c3)CSC12)c1csc(N)n1 (stereo not shown)
Result :: 0.05

====

Tested on: Ser. marcescens IFO 12648
Experiment description: MIC by agar dilution, Ser. marcescens IFO 12648
Assay type: cell-based
Details: Serratia marcescens, IFO12648, 17 h; Ser. marcescens IFO 12648; agar dilution, Mueller-Hinton agar; read-out: Minimal Inhibitory Concentration (MIC)
Metric: log10(MIC) (log10 of the value in µg/mL)
Note: values are log10 of MIC expressed in µg/mL.

Guide cases for log10(MIC), answers given:
Molecule: CO/N=C(\C(=O)N[C@@H]1C(=O)N2C(C(=O)[O-])=C(C[n+]3ccn4c(C(C)C)cc(C(C)C)c4c3)CS[C@H]12)c1csc(N)n1
log10(MIC): -0.11
--
Molecule: CON=C(C(=O)NC1C(=O)N2C(C(=O)[O-])=C(C[n+]3ccn4c(C#N)ccc4c3)CSC12)c1csc(N)n1 (stereo not shown)
log10(MIC): -1.92
--
Molecule: CON=C(C(=O)NC1C(=O)N2C(C(=O)[O-])=C(C[n+]3ccn4c(C=O)ccc4c3)CSC12)c1csc(N)n1 (stereo not shown)
log10(MIC): -1.30
--
Molecule: CON=C(C(=O)NC1C(=O)N2C(C(=O)[O-])=C(C[n+]3ccn4c([N+](=O)[O-])ccc4c3)CSC12)c1csc(N)n1 (stereo not shown)
log10(MIC): -1.00
--
Molecule: Nc1nc(/C(=N/OCF)C(=O)N[C@@H]2C(=O)N3C(C(=O)[O-])=C(C[n+]4ccn5ccc(CO)c5c4)CS[C@H]23)cs1
log10(MIC): -1.30
--
Molecule: CC(C)(ON=C(C(=O)NC1C(=O)N2C(C(=O)[O-])=C(C[n+]3ccn4c(CO)ccc4c3)CSC12)c1csc(N)n1)C(=O)O (stereo not shown)
log10(MIC): -0.41
--
Molecule: CO/N=C(\C(=O)N[C@@H]1C(=O)N2C(C(=O)[O-])=C(C[n+]3ccn4c(SCCO)ccc4c3)CS[C@H]12)c1nc(N)sc1Cl
log10(MIC): -0.70
--
Molecule: Nc1nc(C(=NOCF)C(=O)NC2C(=O)N3C(C(=O)[O-])=C(C[n+]4ccn5cccc5c4)CSC23)cs1 (stereo not shown)
log10(MIC): -1.92
--
Molecule: CCO/N=C(\C(=O)N[C@@H]1C(=O)N2C(C(=O)[O-])=C(C[n+]3ccn4cccc4c3C)CS[C@H]12)c1csc(N)n1
log10(MIC): -1.30
--
Molecule: CO/N=C(\C(=O)N[C@@H]1C(=O)N2C(C(=O)[O-])=C(C[n+]3ccn4c(SCCO)ccc4c3)CS[C@H]12)c1nsc(N)n1
log10(MIC): -1.30

Query :: May I ask what log10(MIC) has been recorded for CO/N=C(\C(=O)N[C@@H]1C(=O)N2C(C(=O)[O-])=C(C[n+]3ccn4c(CO)ccc4c3)CS[C@H]12)c1nsc(N)n1 ?
Result :: -1.92

Query :: Quick one: log10(MIC) of CO/N=C(\C(=O)N[C@@H]1C(=O)N2C(C(=O)[O-])=C(C[n+]3ccn4c(C(C)O)ccc4c3)CS[C@H]12)c1nsc(N)n1 (stereo partly shown) ?
Result :: -1.30

====

System: Ser. marcescens IFO 12648
Experiment description: MIC by agar dilution, Ser. marcescens IFO 12648
Type: cell-based
Details: Serratia marcescens, IFO12648, 17 h; Ser. marcescens IFO 12648; agar dilution, Mueller-Hinton agar; read-out: Minimal Inhibitory Concentration (MIC)
Metric: MIC (µg/mL)
Give your result in µg/mL as a bare value.

// solved cases for MIC follow
Molecule: CO/N=C(\C(=O)N[C@@H]1C(=O)N2C(C(=O)[O-])=C(C[n+]3ccn4cccc4c3C)CS[C@H]12)c1nc(N)sc1Cl
Metric: MIC
Result: 0.2

Molecule: CO/N=C(\C(=O)N[C@@H]1C(=O)N2C(C(=O)[O-])=C(C[n+]3ccn4cccc4c3)CS[C@H]12)c1nc(N)sc1Cl
Metric: MIC
Result: 0.1

Molecule: CCO/N=C(\C(=O)N[C@@H]1C(=O)N2C(C(=O)[O-])=C(C[n+]3ccn4c(C(C)=O)cc(Cl)c4c3)CS[C@H]12)c1csc(N)n1
Metric: MIC
Result: 0.2

Molecule: CO/N=C(\C(=O)N[C@@H]1C(=O)N2C(C(=O)[O-])=C(C[n+]3ccn4cccc4c3C)CS[C@H]12)c1nsc(N)n1
Metric: MIC
Result: 0.025

Molecule: CO/N=C(\C(=O)N[C@@H]1C(=O)N2C(C(=O)[O-])=C(C[n+]3ccn4ccc(Cl)c4c3)CS[C@H]12)c1csc(N)n1
Metric: MIC
Result: 0.012

Consider the additional molecule presented here.
Query :: Which MIC value is on record for CON=C(C(=O)NC1C(=O)N2C(C(=O)[O-])=C(C[n+]3ccn4ccc(CO)c4c3)CSC12)c1csc(N)n1 (stereo not drawn) ?
Result :: 0.012
